- Tested on: SN12C renal
- protocol description: NCI-60 one-dose screen, 48 h
- condition parameters: 10 µM unless noted
The panel holds about 83,000 compounds, 20% with a hit somewhere; the sample as a whole holds those more often. Active and inactive are the calls of the source. The calls were made as follows: active = growth percent below 10; inactive = the rest.
Log the outcome using a class from active, inactive

Data request: What did this assay record as the result for CN1C(=C2C(=O)OC(C)(C)OC2=O)CCC1C(=O)NCc1ccc(Cl)cc1Cl (stereo not given) ?
Data returned: inactive

Data request: Record lookup: outcome of this test for COc1ccc2c(c1)c(-c1ccc(-c3cn(C)c4ccc(OC)cc34)o1)cn2C ?
Data returned: inactive

Data request: State the result this test recorded for Cc1cccc2c3c(sc12)C(c1ccc(F)cc1)C(C#N)=C(N)O3 (stereo not given) .
Data returned: inactive

Data request: I'd appreciate the recorded outcome for COc1ccc(/C=N/Nc2cc(=O)[nH]c3ccc(Cl)cc23)cc1 from this test.
Data returned: inactive

Data request: Per the assay record, what outcome was assigned to COc1c(B(O)O)cc(F)cc1-c1nc2ccc3[nH]ncc3c2c2c1CCCC2 ?
Data returned: inactive

Data request: # lookup: test call for CCc1cccc2c3c(sc12)C(c1ccc(Cl)cc1)C(C#N)=C(N)O3 (stereo not given)
Data returned: inactive

Data request: Test call for this molecule, please: COc1ccc2nc(NCCCNCCO)c3sc4ccc(F)cc4c(=O)c3c2c1
Data returned: inactive

Data request: # outcome recorded in this test, key = C#Cc1cccc(NC(=O)Nc2ccccc2NC(=O)CCl)c1
Data returned: active

Data request: For Cc1ccc(-c2nc(N3CCN(C(=O)Nc4ccc(Cl)c(C(F)(F)F)c4)CC3)c3ccccc3n2)cc1 , which call appears in the assay record?
Data returned: inactive

Data request: Test call for this molecule, please: CCCCCCn1c(-c2ccc(C(=O)O/N=C(\N)c3ccc(OC)cc3)cc2)nc(-c2ccccc2)c1-c1ccccc1
Data returned: active

Data request: Look up the recorded call for CCCCCCNC(=O)Oc1ccc(/C(=C(\C)c2ccc(OC)cc2)c2ccc(OCCN3CCCCC3)cc2)cc1 in this test.
Data returned: inactive

Data request: Dear all, I need the recorded test outcome for COc1ccc(-c2conc2-c2ccccc2)cc1 , thank you.
Data returned: inactive

Data request: Entry CCCCCCn1c(-c2ccc(C(=O)O/N=C(\N)c3ccc4ccccc4c3)cc2)nc(-c2ccccc2)c1-c1ccccc1 : call = ?
Data returned: inactive

Data request: Entry Cc1ccc(/C=N\NC(=O)c2[nH]c3ccc(F)cc3c2-c2ccccc2)cc1 : call = ?
Data returned: inactive

Data request: Would you mind telling me which call this test gave CNc1nc2c(s1)C(c1cc(F)ccc1F)CC(=O)N2 (stereo not given) ?
Data returned: inactive

Data request: Can you look up the reported call for Nc1nc(Cl)cc(=O)n1Cc1ccccc1 for me?
Data returned: inactive

Data request: Per the assay record, what outcome was assigned to O=S(=O)(NCCCNc1cc(-c2c(-c3cccc(O)c3)nc3sccn23)ccn1)c1cccc2ccccc12 ?
Data returned: inactive

Data request: Answer briefly: the call reported for COc1ccc(NC(=O)n2nc(/C=C\c3ccc(O)c(OC)c3)cc2/C=C\c2ccc(O)c(OC)c2)cc1 in this assay.
Data returned: inactive

Data request: What call does the record list for O=C1c2cccc3cccc(c23)C(=O)N1N1C(=O)c2cccc3c(NC4CCCCC4)ccc(c23)C1=O ?
Data returned: inactive

Data request: Lab log entry: Fc1cc(-c2nnc3sc(-c4ccc(Cl)cc4Cl)nn23)c(Cl)cc1Cl — outcome as called in the assay?
Data returned: inactive
